Target: human PAR4 (Homo sapiens)
Sequence (Q96RI0 18-385): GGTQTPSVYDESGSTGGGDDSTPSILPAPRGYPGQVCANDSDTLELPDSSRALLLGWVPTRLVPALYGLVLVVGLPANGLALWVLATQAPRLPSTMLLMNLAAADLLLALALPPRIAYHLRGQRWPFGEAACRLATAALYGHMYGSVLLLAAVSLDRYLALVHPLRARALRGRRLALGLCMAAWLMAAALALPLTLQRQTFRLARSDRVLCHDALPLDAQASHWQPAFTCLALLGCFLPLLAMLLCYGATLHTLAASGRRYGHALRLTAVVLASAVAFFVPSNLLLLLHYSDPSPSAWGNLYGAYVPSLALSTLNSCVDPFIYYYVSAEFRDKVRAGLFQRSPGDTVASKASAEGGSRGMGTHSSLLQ
Assay: PAR4 FLIPR assay: antagonism of agonist-peptide-induced calcium mobilization in PAR4-expressing HEK293 cells
Conditions: H-Ala-Phe(4-F)-[…]NH2-induced intracellular calcium mobilization, 11-point curves
Structures can show the parent of a compound that is named as a salt.
quantity_name: pIC50
In simple prose, pIC50 is minus the logarithm base ten of a concentration in moles per litre.

**Query** Reported pIC50 for `COc1cnc2c(-c3nc4cc(F)c(O[C@@H](C)[C@@H](C)OC(=O)Nc5ccc(N6CCOC6=O)nc5)cc4s3)cc(C)cc2n1` : what is it?
**Result** 8.62

**Query** Would you mind doing `COc1cnc2c(-c3nc4c(F)c(F)c(OCCNS(=O)(=O)c5cccc(F)c5)cc4s3)cc(C)cc2n1` as well?
**Result** 8.31

**Query** // query: `COc1cnc2c(-c3nc4cc(F)c(O[C@@H](C)[C@@H](C)OC(=O)Nc5ccc6[nH]c(=O)oc6c5)nc4s3)cc(Cl)cc2c1`
**Result** 8.07

**Query** Note, next up: COc1cnc2c(-c3nc4cc(F)c(OC[C@@H](C)OC(=O)Nc5ccc(C(=O)NCC(C)(C)OP(=O)(O)O)nc5)cc4s3)cc(C)cc2n1 [Example 530, TFA]
**Result** 8.74

**Query** Same read-out for `COc1cnc2c(-c3nc4cc(F)c(O[C@@H](C)[C@@H](C)OC(=O)Nc5ccc(N6CCCC6)nc5)cc4s3)cc(C)cc2n1` ?
**Result** 9.15

**Query** Can you check `COCc1cnc2c(-c3nc4c(F)cccc4s3)cc(C)cc2n1` next?
**Result** 8.37

**Query** Also, `COc1cnc2c(-c3nc4c(Cl)c(F)c(OC)cc4s3)c(C)c(C)cc2n1` please.
**Result** 6.80

**Query** And what about the compound COCc1cnc2c(-c3nc4c(s3)C(O)C(C)(C)CC4)cc(C)cc2n1 (stereo not shown) ?
**Result** 8.35

**Query** Next entry: `COc1cnc2c(-c3nc4c(Cl)c(F)c(O[C@@H](C)[C@@H](C)OC(=O)Nc5cncc(F)c5)cc4s3)cc(C)cc2c1`
**Result** 8.55

**Query** Next up: `COc1cnc2c(-c3nc4cc(F)c(O[C@@H](C)[C@@H](C)OC(=O)Nc5cnc(C(=O)N(C)C)nc5)cc4s3)cc(C)cc2n1`
**Result** 9.10

**Query** Then `COc1cnc2c(-c3nc4c(Cl)c(F)c(O[C@@H](C)[C@@H](C)OC(=O)Nc5cnc(OCCO)nc5)cc4s3)cc(Cl)cc2c1` ?
**Result** 9.10

**Query** # repeat for COc1cc(C(O)C2(C(F)(F)F)CC2)c2nc(-c3cc(C)cc4nc(OC)cnc34)sc2c1 (stereo not shown)
**Result** 8.25

**Query** Next record, please: `COc1cnc2c(-c3nc4cc(F)c(O[C@@H](C)[C@@H](C)OC(=O)Nc5cnc(OCCO)nc5)nc4s3)cc(C)cc2n1`
**Result** 8.59

**Query** Record: `COc1cnc2c(-c3nc4cc(F)c(OC[C@@H](C)OC(=O)Nc5cnc(OCC(C)(C)O)nc5)cc4s3)cc(C)cc2n1`
**Result** 8.92

**Query** Proceed to `COc1cnc2c(-c3nc4cc(F)c(O[C@@H](C)[C@@H](C)OC(=O)Nc5cnc(C(N)=O)nc5)nc4s3)cc(C)cc2n1`
**Result** 9.52

**Query** Next entry: `COc1cc(C(C)(C)O)c2nc(-c3cc(C)cc4nc(OC)cnc34)sc2c1`
**Result** 5.85

**Query** Also check `COc1cnc2c(-c3nc4cc(F)c(O[C@@H](C)[C@@H](C)OC(=O)Nc5cnc(CO)nc5)nc4s3)cc(C)cc2c1`
**Result** 7.96

**Query** Cool, now `COc1ccc(NC(=O)OCCOc2ccc3nc(-c4cc(C)cc5nc(OC)cnc45)sc3c2)cn1`
**Result** 8.89

**Query** // next record `COc1cnc2c(-c3nc4c(C)cc(OCCNS(=O)(=O)c5ccc(F)cc5)cc4s3)cc(C(C)(C)O)cc2n1`
**Result** 6.92

**Query** Do the same for `COc1ccc2[nH]c(-c3cc(C)cc4nc(OC(F)F)cnc34)nc2c1` please
**Result** 7.04

**Query** Another compound to look at: `COc1cnc2c(-c3nc4cc(F)c(O[C@@H](C)[C@@H](C)OC(=O)Nc5ccc(C)nc5)cc4s3)cc(C)cc2n1`
**Result** 8.72

**Query** Then `COc1cnc2c(-c3nc4c(Cl)c(F)c(OCCOC(=O)Nc5cnc6c(c5)cc(C)n6C)cc4s3)cc(C)cc2n1` ?
**Result** 7.92

**Query** Next record, please: `COc1cnc2c(-c3nc4c(Cl)c(F)c(OC[C@@H](C)OC(=O)Nc5cnc(C#N)nc5)cc4s3)cc(C)cc2n1`
**Result** 8.70

**Query** Then this compound: `COc1cnc2c(-c3nc4cc(F)c(O[C@@H](C)[C@@H](C)OC(=O)Nc5cnc(OCCO)nc5)nc4s3)cc(Cl)cc2c1`
**Result** 8.92

**Query** Then what about the compound CNC(=O)c1cnc2c(-c3nc4cc(F)c(O[C@@H](C)[C@@H](C)OC(=O)Nc5cnc(C)nc5)cc4s3)cc(C)cc2n1 [Example 614] ?
**Result** 7.52

**Query** // next record `COCc1cnc2c(-c3nc4cccnc4s3)cc(C)cc2n1`
**Result** 7.32

**Query** # repeat for COc1cc(C(O)C2(CO)CCC2)c2nc(-c3cc(C)cc4nc(OC)cnc34)sc2c1 (stereo not shown)
**Result** 8.42

**Query** Also, `COCc1cnc2c(-c3nc4c(C)cc(OC)cc4s3)cc(C)cc2n1` please.
**Result** 9.22

###

target: human PAR4 (Homo sapiens, UniProt Q96RI0); assay: PAR4 FLIPR assay: antagonism of agonist-peptide-induced calcium mobilization in PAR4-expressing HEK293 cells; settings: H-Ala-Phe(4-F)-[…]NH2-induced intracellular calcium mobilization, 11-point curves
quantity_name: pIC50
By convention, pIC50 is the negative base-10 log of a molar concentration.

**Query** // lookup pIC50 for `COc1cnc2c(-c3nc4cc(F)c(O[C@@H](C)[C@@H](C)OC(=O)Nc5cnc(C(=O)NCC(C)(C)O)nc5)nc4s3)cc(C)cc2n1`
**Result** 8.33

**Query** Field entry: `COc1cnc2c(-c3nc4cc(F)c(OC[C@@H](C)OC(=O)Nc5ccnc(CCO)c5)nc4s3)cc(C)cc2n1`
**Result** 8.59

**Query** # iterate: COCc1cnc2c(-c3nc4c(C(C)O)cc(OC)cc4s3)cc(C)cc2n1 (centres unmarked)
**Result** 8.85

**Query** Same again, this time with `COc1cnc2c(-c3nc4cc(F)c(OCCOC(=O)Nc5cccnc5)cc4s3)cc(C)cc2n1`
**Result** 8.80

**Query** One more compound: `COc1cnc2c(-c3nc4cc(F)c(O[C@@H](C)[C@@H](C)OC(=O)Nc5ccc6[nH]c(=O)oc6c5)cc4s3)cc(C)cc2n1`
**Result** 8.46

**Query** Thanks! And `COc1cnc2c(-c3nc4cc(F)c(OC[C@@H](C)OC(=O)Nc5ccc(CO)nc5)nc4s3)cc(C)cc2n1` ?
**Result** 8.68

**Query** Next up: `Cc1cc(-c2nc3c(s2)CCCC3)c2ncc(OC(F)F)nc2c1`
**Result** 7.89

**Query** Also `COc1cnc2c(-c3nc4c(Cl)c(F)c(O[C@@H](C)[C@@H](C)OC(=O)Nc5ccc(F)nc5)cc4s3)cc(Cl)cc2c1` , if possible.
**Result** 8.51

**Query** Request: `COc1cnc2c(-c3nc4c(Cl)c(F)c(O[C@@H](C)[C@@H](C)OC(=O)Nc5cnc(C)c(C)c5)cc4s3)cc(Cl)cc2c1`
**Result** 8.60

**Query** And then `Cc1cc(-c2nc3cc(F)c(O[C@@H](C)[C@@H](C)OC(=O)Nc4cnc(C)nc4)cc3s2)c2ncc(C(=O)N(C)C)nc2c1` , what is it?
**Result** 6.06

**Query** Same question for `COc1cnc2c(-c3nc4cc(F)c(O[C@@H](C)[C@@H](C)OC(=O)Nc5ccnc(OCCO)c5)nc4s3)cc(C)cc2n1` please.
**Result** 8.77

**Query** And the next one, `Cc1cc(-c2nc3c(C)cc(OCCNS(=O)(=O)c4ccc(F)cc4F)cc3s2)c2ncc(OC(F)F)nc2c1` ?
**Result** 8.60

**Query** Let us now turn to `COc1cnc2c(-c3nc4c(C)c(F)c(OC)cc4s3)cc(CO)cc2n1`
**Result** 8.92

**Query** Consider next the compound `Cc1cc(-c2nc3ccc(OCc4ccccc4)cc3s2)c2ncc(OC(F)F)nc2c1` in the same way.
**Result** 6.10

From: patent US12060347B2
